In this section, each of the compounds is paired with its reported ¦Score/1SD¦.
- Test system: ATXN2-luc
- PROCEDURE SUMMARY: MSSR pilot screen: ATXN2-luc luciferase assay (Bright-Glo) in H2 cells, single 10 μM dose
- Format: cell-based, human
- CONDITIONS: pilot screen; absolute score divided by 1SD (0.891 or 0.9)
Where a name gives a salt, the structure may show the parent alone.

{"columns": ["COMPOUND", "¦Score/1SD¦"],
 "data": [
  ["CO[C@H]1[C@H](O)[C@H](O[C@H]2CC[C@@]3(C)[C@H](CC[C@@H]4[C@@H]3CC[C@]3(C)[C@@H](C5=CC(=O)OC5)CC[C@]43O)C2)O[C@@H](C)[C@@H]1O", 3.38],
  ["CN1CCN(CCCN2c3ccccc3Sc3ccc(C(F)(F)F)cc32)CC1 [TRIFLUOPERAZINE HYDROCHLORIDE]", 6.51],
  ["C[C@]12CC[C@H](O)C[C@H]1CC[C@@H]1[C@@H]2[C@H](O)C[C@]2(C)[C@@H](C3=CC(=O)OC3)CC[C@]12O", 3.93],
  ["C/C1=C2/[N-][C@H]([C@H](CC(N)=O)[C@@]2(C)CCC(=O)NC[C@@H](C)OP(=O)([O-])O[C@H]2[C@@H](O)[C@@H](n3cnc4cc(C)c(C)cc43)O[C@@H]2CO)[C@]2(C)N=C(/C(C)=C3N=C(/C=C4N=C1[C@@H](CCC(N)=O)C\\4(C)C)[C@@H](CCC(N)=O)[C@]\\3(C)CC(N)=O)[C@@H](CCC(N)=O)[C@]2(C)CC(N)=O.[Co]", 5.68],
  ["C[C@H]1O[C@@H](O[C@H]2[C@@H](O)C[C@H](O[C@H]3[C@@H](O)C[C@H](O[C@H]4CC[C@@]5(C)[C@H](CC[C@@H]6[C@@H]5CC[C@]5(C)[C@@H](C7=CC(=O)OC7)[C@@H](O)C[C@]65O)C4)O[C@@H]3C)O[C@@H]2C)C[C@H](O)[C@@H]1O", 4.54],
  ["CC1=CC(=O)c2ccccc2C1=O", 3.85],
  ["C1CCC(N=C(NC23CC4CC(CC(C4)C2)C3)N2CCOCC2)CC1.Cl [U-37883A]", 5.57],
  ["CNC1CC(c2ccc(Cl)c(Cl)c2)c2ccccc21 (centres unmarked)", 3.41],
  ["C[n+]1cc2c3c(ccc2c2ccc4cc5c(cc4c21)OCO5)OCO3", 3.02],
  ["COC(=O)C1=C(C)NC(C)=C(C(=O)OCCN(C)Cc2ccccc2)C1c1cccc([N+](=O)[O-])c1 (centres unmarked)", 3.12],
  ["CS(=O)(=O)Nc1ccc(Cc2noc(-c3ccc4[nH]cc(CCN)c4c3)n2)cc1", 3.51],
  ["CC(=O)O[C@H]1CC[C@@]2(C)[C@H](CC[C@@H]3[C@@H]2CC[C@]2(C)[C@@H](C4=CC(=O)OC4)[C@@H](OC(C)=O)C[C@]32O)C1 [GITOXIGENIN DIACETATE]", 4.73],
  ["C[C@]12CC[C@H](O)C[C@H]1CC[C@@H]1[C@@H]2CC[C@]2(C)[C@@H](C3=CC(=O)OC3)CC[C@]12O", 4.07],
  ["C[C@]12CC[C@H](O)C[C@H]1CC[C@@H]1[C@@H]2C[C@@H](O)[C@]2(C)[C@@H](C3=CC(=O)OC3)CC[C@]12O", 3.66]
]}

* * *

- Test system: H2 and S1 cells
- PROCEDURE SUMMARY: Paired MTT viability assay, average of H2 and S1 cells (1 and 10 uM)
- Assay type: cell-based, human
- CONDITIONS: Homo sapiens, read-out: H2&S1 ave MTT 1uM, 1 uM compound
In this section, each of the compounds is paired with its reported viability at 1 µM.

{"columns": ["COMPOUND", "TARGET ENTITY", "viability at 1 µM, %"],
 "data": [
  ["CO[C@H]1[C@H](O)[C@H](O[C@H]2CC[C@@]3(C)[C@H](CC[C@@H]4[C@@H]3CC[C@]3(C)[C@@H](C5=CC(=O)OC5)CC[C@]43O)C2)O[C@@H](C)[C@@H]1O", "H2 and S1 cells", 30.8],
  ["CO[C@H]1[C@H](O)[C@H](O[C@H]2CC[C@@]3(C=O)[C@H](CC[C@@H]4[C@@H]3CC[C@]3(C)[C@@H](C5=CC(=O)OC5)CC[C@]43O)C2)O[C@@H](C)[C@@H]1O [PERUVOSIDE]", "H2 and S1 cells", 47.5],
  ["CO[C@H]1C[C@H](O[C@H]2CC[C@]3(C)[C@H]4CC[C@]5(C)[C@@H](C6=CC(=O)OC6)CC[C@]5(O)[C@@H]4CC[C@]3(O)C2)O[C@H](C)[C@H]1O", "H2 and S1 cells", 58.7],
  ["C[C@]12CC[C@H](O)C[C@H]1CC[C@@H]1[C@@H]2[C@H](O)C[C@]2(C)[C@@H](C3=CC(=O)OC3)CC[C@]12O", "H2 and S1 cells", 45.8],
  ["C[C@H]1O[C@@H](O[C@H]2[C@@H](O)C[C@H](O[C@H]3[C@@H](O)C[C@H](O[C@H]4CC[C@@]5(C)[C@H](CC[C@@H]6[C@@H]5CC[C@]5(C)[C@@H](C7=CC(=O)OC7)CC[C@]65O)C4)O[C@@H]3C)O[C@@H]2C)C[C@H](O)[C@@H]1O", "H2 and S1 cells", 34.3],
  ["CC(=O)O[C@H]1C[C@H](O[C@H]2[C@@H](O)C[C@H](O[C@H]3[C@@H](O)C[C@H](O[C@H]4CC[C@@]5(C)[C@H](CC[C@@H]6[C@@H]5C[C@@H](O)[C@]5(C)[C@@H](C7=CC(=O)OC7)CC[C@]65O)C4)O[C@@H]3C)O[C@@H]2C)O[C@H](C)[C@H]1O[C@@H]1O[C@H](CO)[C@@H](O)[C@H](O)[C@H]1O [LANATOSIDE C]", "H2 and S1 cells", 35],
  ["C[C@H]1O[C@@H](O[C@H]2[C@@H](O)C[C@H](O[C@H]3[C@@H](O)C[C@H](O[C@H]4CC[C@@]5(C)[C@H](CC[C@@H]6[C@@H]5C[C@@H](O)[C@]5(C)[C@@H](C7=CC(=O)OC7)CC[C@]65O)C4)O[C@@H]3C)O[C@@H]2C)C[C@H](O)[C@@H]1O", "H2 and S1 cells", 78.7],
  ["C[C@H]1O[C@@H](O[C@H]2CC[C@]3(C=O)[C@H]4CC[C@]5(C)[C@@H](C6=CC(=O)OC6)CC[C@]5(O)[C@@H]4CC[C@]3(O)C2)C[C@H](O)[C@@H]1O [Helveticoside]", "H2 and S1 cells", 99],
  ["CO[C@H]1C[C@H](O[C@H]2CC[C@]3(C=O)[C@H]4CC[C@]5(C)[C@@H](C6=CC(=O)OC6)CC[C@]5(O)[C@@H]4CC[C@]3(O)C2)O[C@H](C)[C@H]1O", "H2 and S1 cells", 54.2]
]}

* * *

- Tested on: ATXN2-luc
- PROCEDURE SUMMARY: MSSR pilot screen: ATXN2-luc luciferase assay (Bright-Glo) in H2 cells, single 10 μM dose
- Type: cell-based, human
- CONDITIONS: pilot screen at 10 µM compound, H2 cells expressing ATXN2-luc
Where a name gives a salt, the structure may show the parent alone.

{"columns": ["MOLECULE", "SD from mean (pilot screen)"],
 "data": [
  ["C[C@]12CC[C@H](O)C[C@H]1CC[C@@H]1[C@@H]2CC[C@]2(C)[C@@H](C3=CC(=O)OC3)CC[C@]12O", -3.629],
  ["C[C@H]1O[C@@H](O[C@H]2[C@@H](O)C[C@H](O[C@H]3[C@@H](O)C[C@H](O[C@H]4CC[C@@]5(C)[C@H](CC[C@@H]6[C@@H]5C[C@@H](O)[C@]5(C)[C@@H](C7=CC(=O)OC7)CC[C@]65O)C4)O[C@@H]3C)O[C@@H]2C)C[C@H](O)[C@@H]1O", -3.904],
  ["C[C@H]1O[C@@H](O[C@H]2[C@@H](O)C[C@H](O[C@H]3[C@@H](O)C[C@H](O[C@H]4CC[C@@]5(C)[C@H](CC[C@@H]6[C@@H]5CC[C@]5(C)[C@@H](C7=CC(=O)OC7)[C@@H](O)C[C@]65O)C4)O[C@@H]3C)O[C@@H]2C)C[C@H](O)[C@@H]1O", -4.086],
  ["CN1CCN(CCCN2c3ccccc3Sc3ccc(C(F)(F)F)cc32)CC1 [TRIFLUOPERAZINE HYDROCHLORIDE]", -5.856],
  ["CO[C@H]1C[C@H](O[C@H]2CC[C@]3(C=O)[C@H]4CC[C@]5(C)[C@@H](C6=CC(=O)OC6)CC[C@]5(O)[C@@H]4CC[C@]3(O)C2)O[C@H](C)[C@H]1O", -4.099],
  ["CC(N/C(=N\\C#N)Nc1ccncc1)C(C)(C)C (stereo not drawn)", -4.875],
  ["C[C@H]1O[C@@H](O[C@H]2[C@@H](O)C[C@H](O[C@H]3[C@@H](O)C[C@H](O[C@H]4CC[C@@]5(C)[C@H](CC[C@@H]6[C@@H]5CC[C@]5(C)[C@@H](C7=CC(=O)OC7)CC[C@]65O)C4)O[C@@H]3C)O[C@@H]2C)C[C@H](O)[C@@H]1O", -4.100],
  ["C[C@@H]1O[C@@H](O[C@H]2C[C@@H](O)[C@]3(CO)[C@H]4[C@H](O)C[C@]5(C)[C@@H](C6=CC(=O)OC6)CC[C@]5(O)[C@@H]4CC[C@]3(O)C2)[C@H](O)[C@H](O)[C@H]1O", -3.832],
  ["CC[C@H]1CN2CCc3cc(OC)c(OC)cc3[C@@H]2C[C@@H]1C[C@H]1NCCc2cc(O)c(OC)cc21.Cl.Cl.O.O.O.O.O.O.O [Cephaeline dihydrochloride heptahydrate]", -4.055],
  ["CC[C@H]1CN2CCc3cc(OC)c(OC)cc3[C@@H]2C[C@@H]1C[C@H]1NCCc2cc(OC)c(OC)cc21 [Emetine dihydrochloride]", -4.840],
  ["CCN(CC)CCCCCCCCOC(=O)c1cc(OC)c(OC)c(OC)c1", -5.740],
  ["O=c1[nH]c(=O)n([C@H]2C[C@H](O)[C@@H](CO)O2)cc1C(F)(F)F", -5.158]
]}
